Target: Glutamate receptor 3 (Rattus norvegicus)
Sequence (P19492 whole entry): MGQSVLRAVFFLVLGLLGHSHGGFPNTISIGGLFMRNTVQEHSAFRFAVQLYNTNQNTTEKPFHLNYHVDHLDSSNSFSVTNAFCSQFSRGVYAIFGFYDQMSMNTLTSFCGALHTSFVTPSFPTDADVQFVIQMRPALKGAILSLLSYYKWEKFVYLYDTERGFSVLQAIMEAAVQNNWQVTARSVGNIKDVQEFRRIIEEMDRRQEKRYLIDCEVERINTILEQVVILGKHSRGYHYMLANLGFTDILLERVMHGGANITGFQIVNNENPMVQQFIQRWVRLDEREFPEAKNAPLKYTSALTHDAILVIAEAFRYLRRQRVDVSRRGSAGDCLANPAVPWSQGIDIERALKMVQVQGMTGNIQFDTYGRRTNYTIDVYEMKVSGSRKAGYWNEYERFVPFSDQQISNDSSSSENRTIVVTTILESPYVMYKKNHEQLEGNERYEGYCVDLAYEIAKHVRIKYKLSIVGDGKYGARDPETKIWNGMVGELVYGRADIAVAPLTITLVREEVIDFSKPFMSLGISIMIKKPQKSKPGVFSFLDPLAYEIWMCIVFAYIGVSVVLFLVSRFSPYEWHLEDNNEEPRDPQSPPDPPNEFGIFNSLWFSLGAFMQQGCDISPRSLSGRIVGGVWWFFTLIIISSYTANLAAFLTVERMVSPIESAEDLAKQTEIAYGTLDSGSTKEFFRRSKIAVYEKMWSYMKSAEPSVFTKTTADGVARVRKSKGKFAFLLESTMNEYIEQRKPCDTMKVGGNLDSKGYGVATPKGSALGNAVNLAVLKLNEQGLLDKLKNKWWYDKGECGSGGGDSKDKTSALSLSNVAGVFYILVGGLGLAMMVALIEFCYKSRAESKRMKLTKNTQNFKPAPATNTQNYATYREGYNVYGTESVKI
Assay: Agonist activity at rat recombinant GluA3 receptor expressed in Xenopus oocytes
Type: functional, cell-based, Oocyte
measurement-type: EC50 (nM)
The answer is to be given in nM; state only the numeric part.

Given Cc1onc(C(=O)O)c1CC(N)C(=O)O (racemic) , state its recorded EC50. 100

* * *

Target: Glutamate receptor 3 (Homo sapiens)
Sequence (P42263 whole entry, canonical isoform): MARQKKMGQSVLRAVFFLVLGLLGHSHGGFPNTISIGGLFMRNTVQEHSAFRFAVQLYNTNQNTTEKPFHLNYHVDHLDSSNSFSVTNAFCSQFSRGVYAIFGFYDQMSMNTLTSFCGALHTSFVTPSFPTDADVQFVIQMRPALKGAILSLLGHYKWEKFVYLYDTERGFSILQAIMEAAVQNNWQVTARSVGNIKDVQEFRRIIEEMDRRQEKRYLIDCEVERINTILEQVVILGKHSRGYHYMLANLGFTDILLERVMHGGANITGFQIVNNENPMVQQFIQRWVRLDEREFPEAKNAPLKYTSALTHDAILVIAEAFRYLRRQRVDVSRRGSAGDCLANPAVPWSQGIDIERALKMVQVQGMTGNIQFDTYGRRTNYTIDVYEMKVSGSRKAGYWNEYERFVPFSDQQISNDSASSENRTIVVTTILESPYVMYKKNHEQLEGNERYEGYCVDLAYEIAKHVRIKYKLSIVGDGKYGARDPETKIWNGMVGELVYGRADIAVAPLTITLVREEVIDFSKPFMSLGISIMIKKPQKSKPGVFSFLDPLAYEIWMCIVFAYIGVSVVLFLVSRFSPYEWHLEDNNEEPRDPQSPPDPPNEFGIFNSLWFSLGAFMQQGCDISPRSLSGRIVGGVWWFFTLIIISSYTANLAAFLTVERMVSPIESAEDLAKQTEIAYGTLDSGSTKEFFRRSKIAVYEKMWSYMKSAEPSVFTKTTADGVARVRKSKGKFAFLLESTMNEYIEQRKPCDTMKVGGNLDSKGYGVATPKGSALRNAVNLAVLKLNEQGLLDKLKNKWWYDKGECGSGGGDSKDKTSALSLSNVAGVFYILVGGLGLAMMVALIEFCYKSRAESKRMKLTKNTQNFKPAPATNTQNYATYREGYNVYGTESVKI
Assay: Agonist activity at recombinant GluA3 receptor flop isoform expressed in Xenopus oocytes
Format: functional, cell-based, Oocyte
Reported pEC50 values are given for each entry in this list.
Keep in mind that pEC50 stands for -log10 of concentration in molar terms.

{"molecule": "NC(Cc1onc(O)c1Br)C(=O)O (racemic)", "pEC50": 3.69}

Next up:
Given Cc1onc(C(=O)O)c1C[C@H](N)C(=O)O , state its recorded pEC50. 5.80

Each recorded value in this set is attributed to ChEMBL document CHEMBL1157033.
